Exercise: state measured cell viability for each of the molecules provided.
test system: P12-Ichikawa; test: cell viability relative to DMSO control; higher = less cytotoxic; conditions: RPMI 5 mM glucose + 10% dialyzed FBS; 48 h; 0.00234 µM
Answers are plain numbers, in %.

Here's what some known entries look like.
MOLECULE	MEASUREMENT_TARGET	RECORDED_MEASUREMENT
CCCCCOC(=O)NC\1=N\C(=O)N(\C=C1F)[C@@H]2O[C@H](C)[C@@H](O)[C@H]2O	P12-Ichikawa	96.1
COc1cccc2cc(-c3nc(C4CCC(C(=O)O)CC4)n4ncnc(N)c34)[nH]c12 (centres undefined)	P12-Ichikawa	123
CCC(C)SSc1ncc[nH]1 (centres undefined)	P12-Ichikawa	91.4

// below: cell viability requested for another molecule
cell viability in this record for `OC[C@H]1O[C@@H](O[C@@H]2[C@@H](CO)O[C@](O)(CO)[C@H]2O)[C@H](O)[C@@H](O)[C@H]1O` : 93

* * *

test system: SEM cells; test: AUC of viability dose-response curve (% viability x log10 dose units); higher = less sensitive; settings: RPMI 5 mM glucose + 10% dialyzed FBS; 48 h
MEASURED_METRIC: AUC of viability dose-response curve
Give bare numbers.

STRUCTURE	MEASURED_METRIC	RECORDED_MEASUREMENT
C/C=C(/C)C(=O)O[C@H]1C(C)=C2[C@H]([C@@H]1OC(=O)CCCCCCC)[C@@](C)(OC(C)=O)C[C@H](OC(=O)CCC)[C@@]1(O)[C@H]2OC(=O)[C@@]1(C)O	AUC of viability dose-response curve	174
Cc1c(CCOc2ccc(C(=O)O)cc2)c2cc(Cl)ccc2n1C(c1ccccc1)c1ccccc1	AUC of viability dose-response curve	451
COC1=CC=CC2=C1C(=NC(=N2)C3=CC=CS3)NN4C(=O)\C=C(C)/C4=O	AUC of viability dose-response curve	270

Give AUC of viability dose-response curve for each listed item.
1. C=C(C)[C@@H]1CC[C@]2(C(=O)O)CC[C@]3(C)[C@H](CC[C@@H]4[C@@]5(C)CC[C@H](O)C(C)(C)[C@@H]5CC[C@]43C)[C@@H]12
2. C[C@](O)(COc1ccc(C#N)cc1)C(=O)Nc1ccc(C#N)c(C(F)(F)F)c1
3. CN(C)c1ccc(O)c2c1C[C@H]1C[C@H]3[C@H](N(C)C)C(O)=C(C(N)=O)C(=O)[C@@]3(O)C(O)=C1C2=O

397
400
475

* * *

test system: P12-Ichikawa; experiment: cell viability relative to DMSO control; higher = less cytotoxic; conditions: RPMI 5 mM glucose + 10% FBS; 48 h; 15.4 µM
Exercise: state measured cell viability for each of the molecules provided.
Give bare numbers, in %.

Give cell viability for each listed item.
1. CN(c1ncccc1CNc1nc(Nc2ccc3c(c2)CC(=O)N3)ncc1C(F)(F)F)[S+](C)(=O)[O-]
2. CCc1cc(Nc2nccc(-c3c(-c4ccc(OC)c(C(=O)Nc5c(F)cccc5F)c4)nc4ccccn34)n2)c(OC)cc1N1CCC(N2CCN([S+](C)(=O)[O-])CC2)CC1
3. CCC[C@H](NC(=O)/C(C#N)=C/c1cccc(Br)n1)c1ccccc1
4. COC1=CC2=NC=CC(=C2C=C1)OC3=CN=C(NC(=O)C/4=C(C)/N(CC(C)(C)O)N(C4=O)C5=CC=CC=C5)C=C3
5. CC(=O)Oc1ccccc1C(=O)O
6. Cc1cc(OCCCc2c(C(=O)O)n(Cc3cccnc3)c3c(-c4c(COc5ccc(N6CCN([S+](C)(=O)[O-])CC6)cc5)nn(C)c4C)cccc23)cc(C)c1Cl
7. CCC1(C)CC(=O)NC1=O (configuration not stated)

[88.9, 85.1, 103, 90, 96.4, 88.3, 92]

* * *

Exercise: state measured cell viability for each of the compounds provided.
system: NOMO1; experiment: cell viability relative to DMSO control; higher = less cytotoxic; conditions: RPMI 5 mM glucose + 10% FBS; 48 h; 5.12 µM
Answers are plain numbers, in %.

Give cell viability for each listed item.
1. COc1nccc(-c2c(-c3ccc(F)cc3)ncn2C2CCNCC2)n1
2. COC1=CC=CC=C1C2=CC=CC(=C2)C/3=C(O)/C4=CC(=C(Cl)C=C4NC3=O)C#N
3. CCCCn1c(=O)n(Cc2ccccc2F)c(=O)c2nc(Cc3ccc(NC(C)=O)cc3)[nH]c21
4. Nc1ccccc1NC(=O)c1ccc(CNC(=O)OCc2cccnc2)cc1
5. Cc1cc(OCCCc2c(C(=O)O)n(Cc3cccnc3)c3c(-c4c(COc5ccc(N6CCN([S+](C)(=O)[O-])CC6)cc5)nn(C)c4C)cccc23)cc(C)c1Cl

1. 96.7
2. 82.4
3. 79.5
4. 33.9
5. 82.4

* * *

Exercise: state measured cell viability for each of the compounds provided.
tested on: SEM cells; test: cell viability relative to DMSO control; higher = less cytotoxic; details: RPMI 5 mM glucose + 10% FBS; 48 h; 0.000781 µM
Give bare numbers, in %.

Here's what some known entries look like.
COMPOUND	cell viability [%]
O=C(Nc1ccccc1Br)N[C@@H]1CCN(c2ccc(C(F)(F)F)cn2)C1	117
ClC1=C(N\C2=N\CCN2)C3=NSN=C3C=C1	93.7
O=C([O-])C(O)Cc1ccc(O)c(O)c1 (stereo not drawn)	102
OC[C@H]1O[C@@H](O[C@@H]2[C@@H](CO)O[C@](O)(CO)[C@H]2O)[C@H](O)[C@@H](O)[C@H]1O	102
CC(=O)Oc1ccccc1C(=O)O	110

Give cell viability for each listed item.
1. CC1(C)O[C@@H]2C[C@H]3[C@@H]4CCC5=CC(=O)C=C[C@]5(C)[C@@]4(F)[C@@H](O)C[C@]3(C)[C@]2(C(=O)CO)O1
2. O=NN(CCCl)C(=O)NC1CCCCC1

[76.9, 114]

Give cell viability for each listed item.
1. NC1(Cc2ccc(Cl)cc2)CCN(c2ncnc3[nH]ccc23)CC1
2. CC(NC1=CC=CC=C1)C\2=C\C(=C/N3C(=O)\C=C(/N=C23)N4CCOCC4)C (stereo not drawn)
3. CC(=O)O.Cc1c(-c2ccc(O)cc2)n(Cc2ccc(OCCN3CCCCCC3)cc2)c2ccc(O)cc12
4. CC(C)n1c(/C=C/[C@H](O)C[C@H](O)CC(=O)O)c(-c2ccc(F)cc2)c2ccccc21

1. 107
2. 99.1
3. 92
4. 103

Give cell viability for each listed item.
1. CC(C)(C)c1cc(NC(=O)Nc2ccc(-c3cn4c(n3)sc3cc(OCCN5CCOCC5)ccc34)cc2)no1
2. C[C@H]1[C@H](NC(=O)/C(=N/OC(C)(C)C(=O)O)c2csc(N)n2)C(=O)N1[S+](=O)([O-])O

1: 80.9; 2: 98.7

Give cell viability for each listed item.
1. CNC1CCC(N(Cc2cccc(-c3ccncc3)c2)C(=O)c2sc3ccccc3c2Cl)CC1 (stereo not drawn)
2. C/C=C(/C)C(=O)O[C@H]1C(C)=C2[C@H]([C@@H]1OC(=O)CCCCCCC)[C@@](C)(OC(C)=O)C[C@H](OC(=O)CCC)[C@@]1(O)[C@H]2OC(=O)[C@@]1(C)O
3. O=C(NCC[S+](=O)([O-])c1ccc(C(F)(F)F)cn1)c1ccc(Cl)cc1
4. CC1=NN(c2ccc(C)c(C)c2)C(=O)/C1=N/Nc1cccc(-c2cccc(C(=O)O)c2)c1O
5. CNC(=O)c1ccc(-c2cnc3ncc(Cc4ccc5ncccc5c4)n3n2)cc1F

1: 90.1; 2: 105; 3: 94.5; 4: 124; 5: 110

* * *

test system: P12-Ichikawa; test: cell viability relative to DMSO control; higher = less cytotoxic; conditions: HPLM + 10% dialyzed FBS; 48 h; 1.71 µM
Binarize cell viability at 90%; below is 1, at or above is -1.

Use these answered entries as a reference point.
COMPOUND	GROUP
COC1=CC=CC2=C1C(=NC(=N2)C3=CC=CS3)NN4C(=O)\C=C(C)/C4=O	1
CC(N[C@H]1C[C@@H]1c1ccccc1)c1ccc2c(c1)OCCO2 (stereo partly specified)	-1
C/C=C(/C)C(=O)O[C@H]1C(C)=C2[C@H]([C@@H]1OC(=O)CCCCCCC)[C@@](C)(OC(C)=O)C[C@H](OC(=O)CCC)[C@@]1(O)[C@H]2OC(=O)[C@@]1(C)O	1
C[C@](O)(COc1ccc(C#N)cc1)C(=O)Nc1ccc(C#N)c(C(F)(F)F)c1	-1

Next up:
Regarding COc1cc2c(cc1OC)C1CC(=O)C(CC(C)C)CN1CC2 (stereo unspecified) , kindly confirm whether its cell viability is beneath 90%.
-1

* * *

tested on: NOMO1; test: cell viability relative to DMSO control; higher = less cytotoxic; settings: RPMI 5 mM glucose + 10% FBS; 48 h; 1.71 µM
MEASURED_METRIC: cell viability (%)
Numbers only, in %.

Here's what some known entries look like.
COMPOUND	MEASUREMENT_TARGET	cell viability / %
CCCCCOC(=O)NC\1=N\C(=O)N(\C=C1F)[C@@H]2O[C@H](C)[C@@H](O)[C@H]2O	NOMO1	87.9
O=C([O-])C(O)Cc1ccc(O)c(O)c1 (centres undefined)	NOMO1	92.5
CC1CCC(C(=O)N(c2cc(C#CC(C)(C)C)sc2C(=O)O)C2CCC(O)CC2)CC1 (centres undefined)	NOMO1	87.7

// below: cell viability requested for another compound
cell viability in this record for `COC1=NC(=NC(=C1N\C2=N\CCN2)Cl)C` : 91.8

Origin of values: the supplement of paper PMC11451515
